Experimental system: human IBAT (Homo sapiens, UniProt Q12908)
Construct: expressed in transfected cells; host or cells: Baby hamster kidney (BHK) cells, H14 clone
Sequence (Q12908 1-348): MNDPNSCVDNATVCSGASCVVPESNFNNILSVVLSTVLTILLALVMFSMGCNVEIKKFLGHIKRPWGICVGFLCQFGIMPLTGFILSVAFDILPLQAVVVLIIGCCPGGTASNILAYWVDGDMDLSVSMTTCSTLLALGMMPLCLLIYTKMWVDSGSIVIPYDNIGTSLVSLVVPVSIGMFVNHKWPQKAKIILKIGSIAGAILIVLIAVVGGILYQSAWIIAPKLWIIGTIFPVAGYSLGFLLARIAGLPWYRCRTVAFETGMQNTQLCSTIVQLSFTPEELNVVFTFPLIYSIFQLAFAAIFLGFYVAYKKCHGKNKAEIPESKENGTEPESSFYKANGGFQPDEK
Measurement notes: In vitro assay of compounds that inhibit IBAT-mediated uptake of [14C]-taurocholate (TC) in H14 cells
Format: cell-based
Recorded conditions: Table 7, 1,5-benzothiazepines; 50% inhibitory concentrations by the biological evaluation procedures
pIC50: −log10 of the molar value.
y means recorded pIC50 is 7 or above; n means it is below 7.

Is reported pIC50 greater than or equal to 7 here: CCCCC1(CCCC)CN(c2ccc(OC)cc2)c2cc(F)ccc2S(=O)(=O)C1
n

Is reported pIC50 greater than or equal to 7 here: CCCCC1(CCCC)CN(c2ccc(OCCOCCOCC[N+](CC)(CC)CC)cc2)c2cc(N(C)C)ccc2S(=O)(=O)C1 [PHA00400885E]
n

Is reported pIC50 greater than or equal to 7 here: CCCCC1(CCCC)CN(c2ccc(OC)cc2)c2cc(N(C)C)ccc2S(=O)(=O)C1
n

Is reported pIC50 greater than or equal to 7 here: CCCCC1(CCCC)CN(c2ccc(OCC[N+](CC)(CC)CC)cc2)c2cc(N(C)C)ccc2S(=O)(=O)C1 [PHA00400884E]
n

Is reported pIC50 greater than or equal to 7 here: CCCCC1(CCCC)CN(c2ccc(OCCN(CC)CC)cc2)c2cc(N(C)C)ccc2S(=O)(=O)C1
n

Is reported pIC50 greater than or equal to 7 here: CCCCC1(CCCC)CN(c2ccc(OCc3ccc(C[N+]45CCN(CC4)CC5)cc3)cc2)c2cc(N(C)C)ccc2S(=O)(=O)C1 [PHA00384640E]
y
